These entries and their values trace back to the supplement of paper PMC9112550.

I'd appreciate it if you could supply shrunken log2 fold change values for the items below.
- Tested on: Escherichia coli TOP10
- experimental protocol: shrunken log2 fold change of peptide-encoding DNA abundance (4.5 h post-induction vs induction); higher = less antimicrobial activity (less host growth inhibition)
- applied conditions: time post-induction: 4.5 h; library: site-saturation at positions 5, 18, 19, 20

I have 4 sequences here; please give me shrunken log2 fold change for each one.
1. RRIRHRPPRLPRPRPRPPQAPRP
2. RRIRYRPPRLPRPRPRPRENPRP
3. RRIRSRPPRLPRPRPRPWGHPRP
4. RRIRTRPPRLPRPRPRPQSNPRP

A:
0.236
0.0246
0.109
-0.581

I have 8 sequences here; please give me shrunken log2 fold change for each one.
1. RRIRSRPPRLPRPRPRPICDPRP
2. RRIRGRPPRLPRPRPRPSPCPRP
3. RRIRHRPPRLPRPRPRPCMGPRP
4. RRIRYRPPRLPRPRPRPNHDPRP
5. RRIRERPPRLPRPRPRPHGNPRP
6. RRIRYRPPRLPRPRPRPWCQPRP
7. RRIRQRPPRLPRPRPRPHSNPRP
8. RRIRYRPPRLPRPRPRPIYEPRP

A:
1: 0.228; 2: -0.0911; 3: -0.194; 4: -0.433; 5: -0.0832; 6: -0.243; 7: -0.0311; 8: 0.0166

I have 6 sequences here; please give me shrunken log2 fold change for each one.
1. RRIRARPPRLPRPRPRPYVQPRP
2. RRIRCRPPRLPRPRPRPWGYPRP
3. RRIRNRPPRLPRPRPRPEHRPRP
4. RRIRVRPPRLPRPRPRPWQKPRP
5. RRIRRRPPRLPRPRPRPDGTPRP
6. RRIRQRPPRLPRPRPRPEGYPRP

A:
-0.471
-0.372
-0.226
0.015
0.0222
-0.0294

I have 3 sequences here; please give me shrunken log2 fold change for each one.
1. RRIRKRPPRLPRPRPRPASNPRP
2. RRIRHRPPRLPRPRPRPICHPRP
3. RRIRWRPPRLPRPRPRPEMRPRP

A:
1: 0.147; 2: -0.265; 3: 2.09

====

- Tested on: Escherichia coli TOP10;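 further: peptides expressed intracellularly from a pBAD plasmid library in pooled LB shake-flask culture, induced with 0.3% L-arabinose, DNA abundance read by NGS, three biological replicates, DESeq2 with apeglm shrinkage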
- experimental protocol: shrunken log2 fold change of peptide-encoding DNA abundance (4.5 h post-induction vs induction); higher = less antimicrobial activity (less host growth inhibition)
- applied conditions: time post-induction: 4.5 h; library: site-saturation at positions 5, 18, 19, 20
Use shrunken log2 fold change to assign classes; range list: range 1: < -0.1; range 2: ≥ -0.1 and < -0.008; range 3: ≥ -0.008

Reference set (10 entries):
RRIRQRPPRLPRPRPRPSTHPRP ... range 1
RRIRRRPPRLPRPRPRPLDKPRP ... range 1
RRIRIRPPRLPRPRPRPDCAPRP ... range 2
RRIRQRPPRLPRPRPRPQVYPRP ... range 2
RRIRARPPRLPRPRPRPHFFPRP ... range 3
RRIRKRPPRLPRPRPRPHTVPRP ... range 1
RRIRPRPPRLPRPRPRPQNFPRP ... range 2
RRIRDRPPRLPRPRPRPQCIPRP ... range 2
RRIRIRPPRLPRPRPRPHFGPRP ... range 3
RRIRCRPPRLPRPRPRPTFLPRP ... range 1

Q: Just checking, what class would you give RRIRWRPPRLPRPRPRPEPDPRP here?
A: range 3

Q: Just checking, what class would you give RRIRERPPRLPRPRPRPKTEPRP here?
A: range 2
